# System: mouse brain membrane SH enzymes
# Type: biochemical
# studyConditions: Table 2; 10 μM compound, mouse brain SHs, FP-Rh
resultType: Off-targets (10 μM)

1. O=C(c1cccc(-c2ccc(-c3cn(C(=O)N4CCCCC4c4ccccc4)nn3)cc2)c1)N1CCCCC1 (stereo not drawn) [Compound 11] : LYPLA1, LYPLA2
2. O=C(c1ccc(-c2ccc(-c3cn(C(=O)N4CCCCC4c4ccccc4)nn3)cc2)cc1)N1CCCCC1 (stereo not drawn) [Compound 12] : LYPLA1, LYPLA2
3. O=C(O)c1cccc(-c2ccc(-c3cn(C(=O)N4CCCCC4CCc4ccccc4)nn3)cc2)c1 (stereo not drawn) [Compound 22] : FAAH
4. O=C(N1CCCCC1c1ccccc1)n1cc(-c2ccc(-c3cccc(CO)c3)cc2)nn1 (stereo not drawn) [Compound 9] : FAAH, LYPLA1, LYPLA2
5. NC(=O)c1ccc(-c2ccc(-c3cn(C(=O)N4CCCCC4c4ccccc4)nn3)cc2)cc1 (stereo not drawn) [Compound 13] : FAAH, LYPLA1, LYPLA2
6. O=C(N1CCCCC1c1ccccc1)n1cc(-c2ccc(-c3ccc(CO)cc3)cc2)nn1 (stereo not drawn) [Compound 10] : FAAH, LYPLA1, LYPLA2
7. O=C(N1CCCCC1c1ccccc1)n1cc(-c2ccc(-c3ccccc3CO)cc2)nn1 (stereo not drawn) [Compound 8] : FAAH, LYPLA1, LYPLA2
